tested on: HCT-15 colon; experiment: NCI-60 one-dose screen, 48 h; settings: 10 µM unless noted
Compounds without any hit were thinned out: in the full panel of roughly 83,000, 20% have a hit. Activity calls are given as the source filed them. The calls were made as follows: active = growth percent below 10; inactive = the rest.
Mark one answer only. Choices: active, inactive

The examples below pair each entry with its known result.
COMPOUND	ASSIGNED_CATEGORY
Cc1ccc(C(=O)Nc2ccccc2N)cc1	inactive
CN1CCc2c(Sc3ccc(C(=O)NO)cc3)c3ccccc3n2C1	inactive
COc1ccc(OC)c(C2C(C#N)=C(N)Oc3cc(O)ccc32)c1 (stereo unspecified)	inactive
O=c1[nH]c(=O)n(Cc2ccc(F)cc2)cc1F	inactive
Cc1nc2cc(Nc3nc(Nc4ccc(F)cc4)nc(N4CCCC4)n3)ccc2n1Cc1ccccc1	active

Input: # outcome recorded in this test, key = O=C(NCc1ccco1)C1CCN(S(=O)(=O)c2ccc(Cl)cc2)CC1
Output: inactive

----------
Test system: M14 melanoma
Assay: NCI-60 one-dose screen, 48 h (100 = growth as untreated, 0 = no growth, -100 = all killed)
Conditions: 10 µM unless noted
Experimental: Growth inhibition of the M14 human tumor cell line is measured as a screen for anti-cancer activity. Cells are grown in 96 well plates and exposed to the test compound for 48 hours. Compounds are tested at a single concentration, which is 10^-5 M for most compounds. The reported endpoint is percent growth (GI% or GIPRCNT), where numbers from 0 - 100% represent growth inhibition, and numbers from -100% - 0 represent cell death. For example, a value of 40 represents 60% growth inhibition. […]
About 83,000 compounds went through this panel and 20% of them were active in at least one assay; those are over-represented in the sample as a whole.
MEASUREMENT_TYPE: growth (%)
Give the value in % but do not write % after it.

Below, each entry is followed by its recorded growth result.
COMPOUND	MEASUREMENT_TYPE	ENDPOINT_VALUE
O=C(Nc1ccccc1O)c1ccc(NS(=O)(=O)c2cccc3cccnc23)cc1	growth	41.1
CCOC(=O)c1cnn(CC(O)c2ccc(F)cc2)c1NC(=O)Nc1ccccc1F (stereo not given)	growth	93
FC(F)(F)c1cc(CNc2nc(Cl)ncc2Br)cc(C(F)(F)F)c1	growth	93.9
O=[N+]([O-])c1ccc(C=C2C(Cl)=C(Cl)C(Cl)=C2Cl)cc1	growth	36.9

# ---- query compound ----
Entry CN1CCN(c2nc(-c3ccncc3)nc3sc4c(c23)CCCCCC4)CC1 — recorded growth = 105

----------
growth values by entry
test system: MDA-MB-435 melanoma; assay: NCI-60 one-dose screen, 48 h (100 = growth as untreated, 0 = no growth, -100 = all killed); settings: 10 µM unless noted
This is part of a sample that, as a whole, favours compounds with a hit. Of some 83,000 tested, about 20% had one in any assay.
Enter your answer as a number in %; do not include the unit.

Example results:
COMPOUND	MEASURED_ON	growth / %
COC(=O)c1cc(-c2ccc(C)cc2)n(C(=O)CSc2nc3sc(C(N)=O)c(C)c3c(=O)n2Cc2ccccc2)n1	MDA-MB-435 melanoma	104
CCOC(=O)c1sc(NC(=O)CN2CCC(Cc3ccccc3)CC2)nc1C	MDA-MB-435 melanoma	105
Cc1nc2cc(Nc3nc(Nc4ccc(F)cc4)nc(-c4cccs4)n3)ccc2n1Cc1ccccc1	MDA-MB-435 melanoma	43.8
O=[N+]([O-])c1ccc(O)c2ncccc12	MDA-MB-435 melanoma	43.8

Okay, now this compound:
Lab book: growth of O=C1C2CC3C(CC2C(=O)[N]1[Sn]([c]1ccccc1)([c]1ccccc1)[c]1ccccc1)C1(Cl)C(Cl)=C(Cl)C3(Cl)C1(Cl)Cl (stereo not given) noted as -96.4

----------
test system: OVCAR-4 ovarian; assay: NCI-60 one-dose screen, 48 h (100 = growth as untreated, 0 = no growth, -100 = all killed); details: 10 µM unless noted
Compounds without any hit were thinned out: in the full panel of roughly 83,000, 20% have a hit.
Doc: threshold 90% (exclusive). Items with growth beneath it return fulfilled; others return not fulfilled.

MOLECULE	ASSIGNED_CATEGORY
CSC1=CC(=O)c2ccccc2C1=O	fulfilled
COC(=O)[C@@H]1CCCN1C(=O)[C@@H]1CCCN1C(=O)[C@@H](Cc1c[nH]c2ccccc12)NC(=S)Nc1cc(C(F)(F)F)cc(C(F)(F)F)c1	fulfilled
CC(C)N1CCN(c2ccc(OC[C@H]3CO[C@](Cn4cncn4)(c4ccc(Cl)cc4Cl)O3)cc2)CC1	not fulfilled
Cc1ccc2nc(NC(=O)CSC(=S)N3CCN(C)CC3)sc2c1	not fulfilled
Cc1cc(Cl)c2c(Cl)ccc(Cl)c2n1	not fulfilled

Input: Does COc1cc2nc(N3CCC[C@H](NC4=CC(=O)c5ccccc5C4=O)C3)nc(N)c2cc1OC have growth strictly under 90%?
Output: fulfilled

Input: Criterion: growth strictly below 90%. Is it met by CN1CCN(CCCn2c3c(sc4ncccc43)c(=O)n3nnc(-c4ccccc4)c23)CC1 ?
Output: fulfilled

Input: Is the reported growth for Cc1nn(-c2ccccc2)c2nc3nc4c(c(N)c3c(-c3ccc(Cl)cc3)c12)CCC4 strictly below 90%?
Output: not fulfilled

Input: Dear reviewer, please state whether O=C1NC(=O)C(CSc2ccccc2)(c2ccccc2)N1 (configuration not stated) has growth strictly beneath 90%.
Output: not fulfilled

Input: Here's an entry: O=c1c2c(=NCCN3CCCC3)cc3c(=O)n(CCCN4CCOCC4)c(=O)c4ccc(c(O)n1CCCN1CCOCC1)c2c4-3 . Is its growth below 90%?
Output: fulfilled

Input: Lab log: compare recorded growth with 90%; is it strictly lower for CCN1C(=O)C2(Nc3ccccc3S2)c2cc(C)ccc21 (configuration not stated) ?
Output: not fulfilled

----------
tested on: IGROV1 ovarian; test: NCI-60 one-dose screen, 48 h; conditions: 10 µM unless noted
About 83,000 compounds went through this panel and 20% of them were active in at least one assay; those are over-represented in the sample as a whole. Activity calls are given as the source filed them. The calls were made as follows: active = growth percent below 10; inactive = the rest.
Allowed answers: active, inactive

Study these solved cases before continuing.
COMPOUND	MEASURED_ON	ASSIGNED_CATEGORY
CCSc1nnc2c3cc(Br)ccc3n(C)c2n1	IGROV1 ovarian	inactive
O=[N+]([O-])c1cc2c(cc1Br)-c1ccccc1C2	IGROV1 ovarian	inactive
CCCCc1ccc(C(O)(CCN2CC3CCC(CC3)C2)c2ccccc2)cc1 (stereo unspecified)	IGROV1 ovarian	inactive
CCN(C(=O)c1ccc2c3c(cccc13)C=C2)c1ccccc1	IGROV1 ovarian	inactive
Cc1ccccc1-n1nnc(C(=O)Nc2ccc(-c3ccccc3)cn2)c1C	IGROV1 ovarian	inactive
NC(=O)c1cccc(-n2ccc3cc(NC(=O)Nc4ccc(Cl)c(Cl)c4)ccc32)n1	IGROV1 ovarian	inactive

Input: Give the logged outcome of this assay for the following compound: Cc1ccc2c(N/N=C\c3ccco3)cc(C)nc2n1
Output: inactive

Input: I'd appreciate the recorded outcome for COc1ccc(/C=C2\SC(=O)N(CN3CCN(c4cc5c(cc4F)c(=O)c(C(=O)O)cn5C4CC4)CC3)C2=O)cc1 from this test.
Output: inactive

----------
tested on: A498 renal; experiment: NCI-60 one-dose screen, 48 h (100 = growth as untreated, 0 = no growth, -100 = all killed); conditions: 10 µM unless noted
About 83,000 compounds went through this panel and 20% of them were active in at least one assay; those are over-represented in the sample as a whole.
Property: growth; scope: individual compounds
Write down the numeric answer in % and omit the unit.

Worked examples follow.
COMPOUND	growth [%]
CC(C)(C)[Si](C)(C)OC1[C@@H](O[Si](C)(C)C(C)(C)C)[C@@H](CNC(=O)NC(=O)C(F)(F)F)O[C@H]1n1cnc2c(NC(=O)Nc3ccccc3)ncnc21 (stereo not given in full)	96.9
COc1nc2c(cc1S(=O)(=O)c1ccccc1)CCc1c-2cnn1-c1ccccc1Cl	-1.8
CC(C)OC1=C(Cl)C(=O)c2ccccc2C1=O	112
Cc1nc2cc(Nc3nc(Nc4ccc(F)cc4)nc(N4CCN(C)CC4)n3)ccc2n1Cc1ccccc1	29.2

Turning now to a further compound:
Looking up CC(C)(C)[Si](C)(C)OC1[C@@H](COC(=O)NC(=O)CCl)O[C@@H](n2cnc3c(N)ncnc32)[C@H]1O[Si](C)(C)C(C)(C)C (stereo not given in full) , I found its growth recorded as 105

----------
Measured growth, listed per entry.
tested on: MDA-MB-435 melanoma; assay: NCI-60 one-dose screen, 48 h (100 = growth as untreated, 0 = no growth, -100 = all killed); details: 10 µM unless noted
This is part of a sample that, as a whole, favours compounds with a hit. Of some 83,000 tested, about 20% had one in any assay.
Provide only the numeric value, understood in %.

As a guide, the following entries are already answered.
COMPOUND	UNITS	growth
COc1cc(CNCCN2C(=O)c3ccc4c5c(ccc(c35)C2=O)C(=O)N(CCNCc2cc(OC)c(OC)c(OC)c2)C4=O)cc(OC)c1OC	%	-63.4
O=C1c2cc(S(=O)(=O)O)ccc2C(=O)c2c1cccc2[N+](=O)[O-]	%	105
COc1ccc(/C=C2\CN(Cc3cn(CCCNc4ccnc5cc(Cl)ccc45)nn3)C/C(=C\c3ccc(OC)cc3)C2=O)cc1	%	60.2
FCOC(C(F)(F)F)C(F)(F)F	%	103

I looked up COc1ncc(F)c(OC)n1 and its growth for MDA-MB-435 melanoma was 106

// assay MDA-MB-435 melanoma, entry COc1ccc(-n2ncc3c4nc(OC)c(S(=O)(=O)c5ccccc5)cc4ccc32)cc1 , growth value = 83.3

Assay MDA-MB-435 melanoma, sample COc1nc2c(cc1S(=O)(=O)c1ccccc1)CCc1c-2cnn1-c1ccccc1 , growth read: 69.3

Measured growth (MDA-MB-435 melanoma), entry COc1ccc(OC)c(C2C(C#N)=C(N)Oc3cc(O)ccc32)c1 (stereo not given) : 83.4

Entry O=S(=O)(OCCO)c1ccccc1 , MDA-MB-435 melanoma data, growth value: 98.2

The observed growth for FC(F)(F)Oc1ccc2c(c1)C[C@H]1C[C@@H](c3ccoc3)N2O1 when tested with MDA-MB-435 melanoma stands at 88.8

Bench note, MDA-MB-435 melanoma: entry Fc1c[c-]c(-c2ccccn2)c(F)c1.Fc1c[c-]c(-c2ccccn2)c(F)c1.[Cl][Pt+].[Cl][Pt+].c1ccc([PH+](C[PH+](c2ccccc2)c2ccccc2)c2ccccc2)cc1 , its growth = 5.73

The compound Clc1ccc(C2=Nc3cccc4cccc(c34)N2)cc1Cl , tested on MDA-MB-435 melanoma, showed growth of 114

Item CCOC(=O)c1c(Cl)c2c(n1Cc1cc(OC)cc(OC)c1)-c1oncc1CCC2 was tested on MDA-MB-435 melanoma; the reported growth is -53

So the reported growth for O=[N+]([O-])c1ccc2nc(N/N=C/c3ccc(O)cc3)sc2c1 , on MDA-MB-435 melanoma, turned out to be 47.7

Entry COc1cc(/C=C/c2cc(/C=C/c3ccc(O)c(OC)c3)n(-c3ccccc3)n2)ccc1O , MDA-MB-435 melanoma data, growth value: -67.3

growth of COc1ccc(-c2nc3sc(C)cn3c2/C=C/C(=O)c2cc(OC)c(OC)c(OC)c2)cc1 , assay on MDA-MB-435 melanoma, is 20.9

growth for MDA-MB-435 melanoma with input CCCCCn1c(=N)n(CC(O)COc2cccc(C)c2)c2ccccc21 (stereo not given) equals 6.94
